Where these numbers come from: paper PMC10094510

- targetUnderTest: human CB2 (Homo sapiens, UniProt P34972, Q63R)
- Construct: HA (N); 3TCS (N); expressed in transfected cells; host or cells: HEK-293S cells, transient transfection (PEI max)
- Sequence (P34972 whole entry Q63R): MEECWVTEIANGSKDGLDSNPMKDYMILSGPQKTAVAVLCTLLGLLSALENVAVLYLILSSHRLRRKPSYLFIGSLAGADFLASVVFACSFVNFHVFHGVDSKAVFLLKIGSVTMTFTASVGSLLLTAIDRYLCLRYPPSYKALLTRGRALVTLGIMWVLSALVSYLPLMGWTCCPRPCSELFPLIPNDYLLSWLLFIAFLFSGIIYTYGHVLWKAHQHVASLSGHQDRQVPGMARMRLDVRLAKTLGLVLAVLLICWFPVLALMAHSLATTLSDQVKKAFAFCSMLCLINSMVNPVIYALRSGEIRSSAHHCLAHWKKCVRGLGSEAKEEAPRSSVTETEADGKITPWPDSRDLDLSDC
- assayProtocol: Real-time BRET CAMYEL cAMP biosensor, forskolin-stimulated HEK-293S cells transfected with human CB2
- Assay type: cell-based

>  <structureString>
CCc1c(C)cc(C(=O)NC2(C(=O)NCCOCCOCCOCCO)CCCCC2)c(=O)n1Cc1ccc(F)cc1

>  <targetUnderTest>
human CB2 (Homo sapiens, UniProt P34972, Q63R)

>  <EC50 (nM)>
100

$$$$
>  <structureString>
O=C(N[C@H]1CC[C@@H](O)CC1)c1cc2cccnc2n(CCN2CCOCC2)c1=O

>  <targetUnderTest>
human CB2 (Homo sapiens, UniProt P34972, Q63R)

>  <EC50 (nM)>
63.1

$$$$
>  <structureString>
CCc1c(C)cc(C(=O)NC2(C(=O)NCCOCCOCCO)CCCCC2)c(=O)n1Cc1ccc(F)cc1

>  <targetUnderTest>
human CB2 (Homo sapiens, UniProt P34972, Q63R)

>  <EC50 (nM)>
10

$$$$

* * *

- targetUnderTest: human CB2 (Homo sapiens, UniProt P34972, Q63R)
- Construct: HA (N); 3TCS (N); expressed in transfected cells; host or cells: HEK-293S cells, transient transfection (PEI max)
- assayProtocol: Real-time BRET CAMYEL cAMP biosensor, forskolin-stimulated HEK-293S cells transfected with human CB2
- Format: cell-based
- conditionParameters: mean over 20 min stimulation, 5 μM forskolin; normalised to V 0% and F 100%
valueKind: cAMP ΔEmax (absolute magnitude percentage decrease from 100%)

>  <compound>
CCc1c(C)cc(C(=O)NC2(C(=O)NCCOCCOCCOCCO)CCCCC2)c(=O)n1Cc1ccc(F)cc1

>  <reportedResult>
26.1

$$$$
>  <compound>
O=C(N[C@H]1CC[C@@H](O)CC1)c1cc2cccnc2n(CCN2CCOCC2)c1=O

>  <reportedResult>
28.0

$$$$
>  <compound>
CCc1c(C)cc(C(=O)NC2(C(=O)NCCOCCOCCO)CCCCC2)c(=O)n1Cc1ccc(F)cc1

>  <reportedResult>
31.4

$$$$
>  <compound>
CCc1c(C)cc(C(=O)NC2(C(=O)O)CCCCC2)c(=O)n1Cc1ccc(F)cc1 [UOSS77, reference compound]

>  <reportedResult>
33.8

$$$$

* * *

- targetUnderTest: human CB2 (Homo sapiens, UniProt P34972, Q63R)
- Construct: HA (N); 3TCS (N); expressed in transfected cells; host or cells: HEK-293S cells, transient transfection (PEI max)
- assayProtocol: Real-time BRET CAMYEL cAMP biosensor, forskolin-stimulated HEK-293S cells transfected with human CB2
- Format: cell-based
- conditionParameters: during 20 min stimulation, 5 μM forskolin
valueKind: time of peak cAMP response (maximal efficacy) (min)

>  <molecule>
O=C(N[C@H]1CC[C@@H](O)CC1)c1cc2cccnc2n(CCN2CCOCC2)c1=O

>  <valueModifier>
=

>  <reportedResult>
2.5

$$$$
>  <molecule>
CCCCCCC(C)(C)c1ccc([C@@H]2C[C@H](O)CC[C@H]2CCCO)c(O)c1 [CP55,940, reference compound]

>  <valueModifier>
≤

>  <reportedResult>
2.5

$$$$
>  <molecule>
CCc1c(C)cc(C(=O)NC2(C(=O)O)CCCCC2)c(=O)n1Cc1ccc(F)cc1 [UOSS77, reference compound]

>  <valueModifier>
=

>  <reportedResult>
2.5

$$$$
>  <molecule>
CCc1c(C)cc(C(=O)NC2(C(=O)NCCOCCOCCO)CCCCC2)c(=O)n1Cc1ccc(F)cc1

>  <valueModifier>
=

>  <reportedResult>
2.5

$$$$

* * *

Parameter CB2/CB1 Selectivity: see the listing below.
- targetUnderTest: human CB2 (Homo sapiens, UniProt P34972, Q63R)
- Construct: HA (N); 3TCS (N); expressed in transfected cells; host or cells: HEK-293S cells, transient transfection (PEI max)
- assayProtocol: Competition radioligand binding assay ([3H]-CP55,940), hCB2 membranes
- conditionParameters: CB2 selectivity relative to CB1, from Ki (or Kd)

>  <molecule>
CCc1c(C)cc(C(=O)NC2(C(=O)O)CCCCC2)c(=O)n1Cc1ccc(F)cc1 [UOSS77, reference compound]

>  <CB2/CB1 Selectivity>
~80

$$$$
>  <molecule>
O=C(N[C@H]1CC[C@@H](O)CC1)c1cc2cccnc2n(CCN2CCOCC2)c1=O [UOMM18]

>  <CB2/CB1 Selectivity>
>126

$$$$
>  <molecule>
CCc1c(C)cc(C(=O)NC2(C(=O)NCCOCCOCCO)CCCCC2)c(=O)n1Cc1ccc(F)cc1 [UOSS75]

>  <CB2/CB1 Selectivity>
~100

$$$$
>  <molecule>
CCc1c(C)cc(C(=O)NC2(C(=O)NCCOCCOCCOCCO)CCCCC2)c(=O)n1Cc1ccc(F)cc1 [UOSS76]

>  <CB2/CB1 Selectivity>
~40

$$$$

* * *

- targetUnderTest: human CB2 (Homo sapiens, UniProt P34972, Q63R)
- Construct: HA (N); 3TCS (N); expressed in transfected cells; host or cells: HEK-293S cells, transient transfection (PEI max)
- assayProtocol: Real-time BRET β-arrestin-2 plasma membrane translocation, HEK-293S cells transfected with human CB2
- Type: cell-based
- conditionParameters: mean over 20 min stimulation; normalised to vehicle 100%
# β-arrestin-2 translocation ΔEmax (% increase above V) annotations
valueKind: β-arrestin-2 translocation ΔEmax (% increase above V) (%)

>  <compound>
O=C(N[C@H]1CC[C@@H](O)CC1)c1cc2cccnc2n(CCN2CCOCC2)c1=O

>  <reportedResult>
7.3

$$$$
>  <compound>
CCc1c(C)cc(C(=O)NC2(C(=O)O)CCCCC2)c(=O)n1Cc1ccc(F)cc1 [UOSS77, reference compound]

>  <reportedResult>
11.1

$$$$
>  <compound>
CCc1c(C)cc(C(=O)NC2(C(=O)NCCOCCOCCO)CCCCC2)c(=O)n1Cc1ccc(F)cc1

>  <reportedResult>
8.5

$$$$
>  <compound>
CCc1c(C)cc(C(=O)NC2(C(=O)NCCOCCOCCOCCO)CCCCC2)c(=O)n1Cc1ccc(F)cc1

>  <reportedResult>
7.9

$$$$
